# assay_explanation: Antiviral activity against Respiratory syncytial virus long A infected in human Hep2 cells assessed as reduction in virus-induced cytopathic effect measured after 6 days by CCK8 assay
# Format: functional, cell-based, Respiratory syncytial virus type A
# run_parameters: HEp-2, 144 h

{"columns": ["compound", "value_units", "EC50"],
 "data": [
  ["COc1ccccc1CC(=O)N1CCN(c2cc(NCCN)c3ccccc3n2)CC1", "nM", 56],
  ["CCC(C(=O)N1CCN(c2cc(NCCN)c3ccccc3n2)CC1)c1ccccc1 (centres undefined)", "nM", 556],
  ["CC(C)(C(=O)N1CCN(c2cc(NCCO)c3ccccc3n2)CC1)c1ccccc1", "nM", 322],
  ["CS(=O)(=O)N1CCN(c2cc(NCCN)c3ccccc3n2)CC1", "nM", 2270]
]}

The measured values listed here are drawn from ChEMBL document CHEMBL3826939.
